# Tested on: 786-0
# PROCEDURE TEXT: Growth inhibition of human 786-0 cells incubated for 48 hrs by sulforhodamine B assay
# Assay type: functional
# EXPERIMENTAL CONDITIONS: 786-0, 48 h
The label depends only on TGI: Criterion met if it is at least 9 µM, Criterion not met if it is smaller.

>  <CHEMICAL STRUCTURE>
COc1cc2cc(Oc3ccc(NC(=O)Nc4ccc(Cl)c(C(F)(F)F)c4)cc3)c(C)nc2cc1OC

>  <TARGET OF ASSAY>
786-0

>  <CLASS>
Criterion not met

$$$$
>  <CHEMICAL STRUCTURE>
CNC(=O)c1cc(Oc2ccc(NC(=O)Nc3ccc(Cl)c(C(F)(F)F)c3)cc2)ccn1

>  <TARGET OF ASSAY>
786-0

>  <CLASS>
Criterion not met

$$$$
>  <CHEMICAL STRUCTURE>
Cc1nc2cc(O)c(O)cc2cc1Oc1ccc(NC(=O)Nc2ccc(Cl)c(Cl)c2)cc1

>  <TARGET OF ASSAY>
786-0

>  <CLASS>
Criterion met

$$$$
>  <CHEMICAL STRUCTURE>
COc1cc2cc(Oc3ccc(NC(=O)Nc4ccc(Cl)c(Cl)c4)cc3)c(C)nc2cc1OC

>  <TARGET OF ASSAY>
786-0

>  <CLASS>
Criterion met

$$$$
>  <CHEMICAL STRUCTURE>
COc1cc2cc(Oc3ccc(NC(=O)Nc4cc(C(F)(F)F)cc(C(F)(F)F)c4)cc3)c(C)nc2cc1OC

>  <TARGET OF ASSAY>
786-0

>  <CLASS>
Criterion not met

$$$$
